B1: LINE1-full (parent)
chain: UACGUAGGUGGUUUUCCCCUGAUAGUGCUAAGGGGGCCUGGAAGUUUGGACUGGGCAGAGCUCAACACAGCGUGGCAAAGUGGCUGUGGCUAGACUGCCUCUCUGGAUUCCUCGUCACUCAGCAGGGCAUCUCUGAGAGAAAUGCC

Variants of: B1
Assay: self-cleavage, relative activity (ratio to wild type); higher = more cleavage; in vitro, sequencing; the parent is a self-cleaving ribozyme
// Criterion not met strictly below 0.3 in self-cleavage; Criterion met otherwise

As a guide, the following entries are already answered.
{"mutant.label": "G21C U132C", "category": "Criterion met"}
{"mutant.label": "A43U A140G", "category": "Criterion met"}
{"mutant.label": "A43G U134A", "category": "Criterion met"}

Query block: Dear colleague, could you confirm whether G89C G144A has self-cleavage at or above 0.3?
Result block: Criterion not met

Query block: Check the entry U73C U104G : does self-cleavage equal or exceed 0.3?
Result block: Criterion met

Query block: Dear colleague, could you confirm whether A107G A121U has self-cleavage at or above 0.3?
Result block: Criterion met
